- Tested on: HCT-116 colon carcinoma
- assay.procedure: Inhibition of in vitro cell proliferation (HCT116)
- Assay type: cell-based, human
- protocol.conditions: Homo sapiens, HCT-116, 14C-thymidine incorporation
Each entry below lists one item and its recorded IC50 value.

Here are 3 compounds together with their reported answers.
>>> result("CON=Cc1c(N)ncnc1Oc1ccc(NC(=O)NC2CC2)c(Cl)c1")
"> 100 µM"
>>> result("CNC(=O)Nc1ccc(Oc2ncnc(N)c2C=NOC)cc1")
"> 10 µM"
>>> result("CNc1ncnc(Oc2ccc3[nH]ccc3c2)c1C=NOC")
"> 10 µM"

Q: Recorded IC50 of CON=Cc1c(N)ncnc1Oc1ccc(NC(=O)Nc2ccc(F)cc2)c(Cl)c1 , please.
Ans: > 10 µM

Q: Dear colleague, I am looking for the recorded IC50 of the following compound: CON=Cc1c(N)ncnc1Oc1ccc(NC(=O)NCCCCN2CCCC2)c(Cl)c1
Ans: > 10 µM

Q: // returns reported IC50 for input CON=Cc1c(N)ncnc1Oc1ccc(NC(=O)NC2CCCCC2)c(Cl)c1
Ans: > 100 µM

Q: // returns reported IC50 for input CON=Cc1c(N)ncnc1Oc1ccc(NC(=O)Nc2ccccc2)c(Cl)c1
Ans: > 100 µM

Q: Which value of IC50 has been reported for CC(=O)N1CCN(CCCON=Cc2c(N)ncnc2Oc2ccc3[nH]c(C)cc3c2F)CC1 in the records?
Ans: > 10 µM

Q: Given the compound CON=Cc1c(N)ncnc1Oc1ccc(NC(=O)Nc2ccccc2C)c(Cl)c1 , what is its reported IC50?
Ans: > 100 µM

====

Reported IC50 values follow for various molecules
- Tested on: HCT-116 colon carcinoma
- assay.procedure: Inhibition of in vitro cell proliferation (HCT116);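 also: cells exposed to compound for 24 h, then 14C-thymidine added for a further 24 h and its uptake into DNA counted by scintillation, DMSO-only wells as control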
- Type: cell-based, human
- protocol.conditions: Homo sapiens, HCT-116, 14C-thymidine incorporation

Examples with answers:
>>> result("CON=Cc1c(N)ncnc1Oc1ccc(CC(=O)Nc2ccccc2)cc1 [Cpd 97]")
"> 10 µM"
>>> result("CON=Cc1c(N)ncnc1Oc1ccc2c(c1)cc(C)n2C(=O)NCCCO [Cpd 40]")
"4.54 µM"
>>> result("CCCCON=Cc1c(N)ncnc1Oc1ccc2[nH]c(C)cc2c1F [Cpd 37]")
"3 µM"
>>> result("CCON=Cc1c(N)ncnc1Oc1ccc2[nH]c(C)cc2c1F [Cpd 1]")
"0.036 µM"

Q: What does the record list as IC50 for C=CCNC(=O)Nc1ccc(Oc2ncnc(N)c2C=NOC)cc1Cl [Cpd 53] ?
Ans: > 1 µM

Q: Need IC50, item Cc1cc2c(F)c(Oc3ncnc(N)c3/C=N/O)ccc2[nH]1 [Cpd 27]
Ans: 1.14 µM

Q: Look up IC50 for this molecule: CON=Cc1c(N)ncnc1Oc1ccc(NC(=O)Nc2ncc(C)s2)c(Cl)c1 [Cpd 90]
Ans: > 10 µM

Q: State the recorded IC50 for this entry: CON=Cc1c(N)ncnc1Oc1ccc(NC(=O)Nc2ccccn2)c(Cl)c1 [Cpd 86]
Ans: > 10 µM

Q: Which IC50 value belongs to COCCON=Cc1c(N)ncnc1Oc1ccc2[nH]c(C)cc2c1F [Cpd 28] ?
Ans: 0.387 µM

Q: Would you mind telling me what IC50 value was observed for CON=Cc1c(N)ncnc1Oc1ccc(OCc2ccccc2)cc1 [Cpd 110] ?
Ans: > 100 µM

Q: Look at this molecule and give its reported IC50. CON=Cc1c(N)ncnc1Oc1ccc(NC(=O)Nc2cccc(F)c2)c(Cl)c1 [Cpd 57]
Ans: > 10 µM

Q: Any idea what IC50 was measured for CON=Cc1c(N)ncnc1Oc1ccc2c(c1)cc(C)n2C(=O)NCCN(C)C [Cpd 41] ?
Ans: > 10 µM

Q: Recorded IC50 of CON=Cc1c(N)ncnc1Oc1ccc(NC(=O)Nc2nc(C)cs2)c(Cl)c1 [Cpd 89] , please.
Ans: > 10 µM

Q: // query IC50 value for entry CCCNC(=O)n1c(C)cc2cc(Oc3ncnc(N)c3C=NOC)ccc21 [Cpd 48]
Ans: 1.22 µM

Q: Form field: reported IC50 of CON=Cc1c(N)ncnc1Oc1ccc(NC(=O)NCc2ccc(F)cc2F)c(Cl)c1 [Cpd 78]
Ans: > 100 µM

Q: Would you kindly share the measured IC50 for CCCCNC(=O)Nc1ccc(Oc2ncnc(N)c2C=NOC)cc1Cl [Cpd 64] ?
Ans: > 100 µM

Q: Entry under review: CON=Cc1c(N)ncnc1Oc1ccc(NC(=O)NCCO)c(Cl)c1 [Cpd 81] . Reported IC50?
Ans: 4.06 µM

Q: Which measured IC50 value corresponds to CON=Cc1c(N)ncnc1Oc1ccc(NC(=O)Nc2ccncc2)c(Cl)c1 [Cpd 88] ?
Ans: 4.69 µM

Q: For the molecule CON=Cc1c(N)ncnc1Oc1ccc(NC(=O)Nc2ccc(F)cc2F)c(Cl)c1 [Cpd 61] , what IC50 is on record?
Ans: > 10 µM

Q: What does the data say about its IC50? Entry: CNC(=O)Nc1ccc(Oc2ncnc(N)c2C=NOC)cc1Br [Cpd 73]
Ans: > 10 µM

Q: If you can, please state the reported IC50 value of CON=Cc1c(N)ncnc1Oc1ccc(NC(=O)Nc2cccc(Cl)c2)c(Cl)c1 [Cpd 59] .
Ans: > 10 µM

Q: Bench note: what IC50 did CON=Cc1c(N)ncnc1Oc1ccc(NC(=O)NCCN(C)C)c(Cl)c1 [Cpd 82] show?
Ans: > 10 µM

Q: IC50 for CON=Cc1c(N)ncnc1Oc1ccc2c(c1)cc(C)n2C(=O)NCc1ccccc1 [Cpd 47] ?
Ans: > 10 µM
